Tested on: KM-20L2
ASSAY_PROCEDURE: NCI tumour cell line growth inhibition, 48 h
Active and inactive are the calls of the source. No stated cut-off is given here; in the data, active = GI50 up to about 1.1 µM and inactive = higher.
Listing of entries alongside the reported GI50.

The following molecules have reported results that may help.
-- ask What does the record list as GI50 for Nn1c(-c2ccccc2)nc2ccc(Br)cc2c1=O ?
-- reply > 100 µM (inactive)

-- ask If you can, please state the reported GI50 value of N#Cc1cccc(C2C(=O)c3ccc(C(=O)c4ccc5c(c4)C(=O)N(c4ccc(Oc6ccc(N7C(=O)c8ccc(C(=O)c9ccc%10c(c9)C(=O)N(c9cccc(C#N)c9)C%10=O)cc8C7=O)cc6)cc4)C5=O)cc3C2=O)c1 (stereo not given) .
-- reply > 100 µM (inactive)

-- ask # input molecule: O=C(O)c1cc(=O)c2[nH]c3ccccc3c2s1 ; wanted: its GI50
-- reply > 100 µM (inactive)

-- ask Which GI50 value belongs to COc1ccc2c(=O)cc(-c3ccc(OC)c(OC)c3OC)oc2c1 ?
-- reply 26.5 µM (inactive)

Below: the item to evaluate.
-- ask Requested read-out: GI50. Entry: N#CCCN(CCC#N)c1ccc(/C=C2\N=C(CN3C(=O)c4ccccc4C3=O)OC2=O)cc1
-- reply > 100 µM (inactive)

// provenance: ChEMBL document CHEMBL1201862
